Tested on: T-cell
Assay Remarks: Inhibition of anti-CD3/CD28-induced IL2 secretion in human T cells
Format: functional, cell-based
Cut-off 200 nM on IC50: below means Criterion met, at or above means Criterion not met.

COc1ccc(N(C(=O)Oc2c(C)cccc2C)c2ccnc(Nc3cc(OC)c(OCCCN4CCN(C)CC4)c(OC)c3)n2)c(OC)c1: Criterion met
COc1ccc(N(C(=O)Oc2c(C)cccc2C)c2ccnc(Nc3ccc(OCCCN4CCN(C)CC4)c(OC)c3)n2)c(OC)c1: Criterion met
COc1ccc(N(C(=O)Oc2c(C)cccc2C)c2ccnc(Nc3ccc(OCCCN4CCCCC4)c(F)c3)n2)c(OC)c1: Criterion not met

Here is the next item to consider.
Task: Hello, I'm reviewing records and need to know if IC50 of `COc1ccc(N(C(=O)Oc2c(C)cccc2C)c2ccnc(Nc3ccc(OCCCN(C)C)cc3)n2)c(OC)c1` is below 200 nM. Could you check?
Output: Criterion not met
